Readings of inhibition at 10 mg/kg for the listed compounds
# Tested on: blood platelet aggregation
# assay.details: Inhibition of blood platelet aggregation (ex vivo, ADP or collagen induced, rats dosed orally)
# Format: in vivo, rat (SD strain, female)
# condition.info: rat, oral, 10 mg/kg, 4 hours before test, ADP or collagen (inducer not given), read-out: % Inhibition of blood platelet aggregation (Test Ex. 2)
Hi! Could you send only the number? It should be in %, unit omitted.

For orientation, consider the following solved cases.
>>> value("COC(=O)C(c1ccccc1Cl)N1CCc2sccc2C1 (stereo not shown) [Compound B, reference compound]")
98.8
>>> value("O=C1C=C2CN(C(C(=O)C3CC3)c3ccccc3Cl)CCC2S1 (stereo not shown)")
98.9

Data request: So what's the measured inhibition at 10 mg/kg for this one? O=C(C1CC1)C(c1ccccc1Cl)N1CCc2sccc2C1 (stereo not shown)
Data returned: 100

Data request: So what's the measured inhibition at 10 mg/kg for this one? CCC(=O)C(c1ccccc1F)N1CCc2sccc2C1 (stereo not shown)
Data returned: 97.8
